# measuredTarget: GTPase HRas (Homo sapiens) (UniProt P01112)
# Sequence (P01112 whole entry, looked up): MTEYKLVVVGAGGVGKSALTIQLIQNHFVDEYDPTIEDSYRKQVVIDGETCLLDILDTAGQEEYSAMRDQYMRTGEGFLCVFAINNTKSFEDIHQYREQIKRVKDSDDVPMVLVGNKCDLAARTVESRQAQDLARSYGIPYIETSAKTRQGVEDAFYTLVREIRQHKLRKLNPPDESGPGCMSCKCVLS
# assayRemarks: Ras wt fluorescent GTP loading blockade – biochemical, wildtype, multiplex bead flow cytometry, dose response (AID 1335)
# runParameters: bead-based flow cytometry, Bodipy-GTP binding to GST-Ras; at 100 µM (top of the series) unless noted
# GTP binding, percent of control annotations
Respond with the bare value in %.

Example entries and their recorded answers appear below.
>  <molecule>
COc1ccc(OCCN2C(=O)c3ccccc3C2=O)cc1

>  <readoutLabel>
GTP binding, percent of control

>  <measuredResult>
81.5

$$$$
>  <molecule>
CSc1nnc(C)c(/C=C/Nc2ccc(C)cc2)n1

>  <readoutLabel>
GTP binding, percent of control

>  <measuredResult>
144

$$$$
>  <molecule>
Cc1cccc(Nc2nc(NCc3ccco3)c3ccccc3n2)c1

>  <readoutLabel>
GTP binding, percent of control

>  <measuredResult>
54.7

$$$$
>  <molecule>
COc1ccc(C(=O)Nn2c(SCC(=O)c3ccccc3)nc3ccccc3c2=O)cc1

>  <readoutLabel>
GTP binding, percent of control

>  <measuredResult>
119

$$$$
>  <molecule>
CCc1ccccc1NC(=O)N1C2CCCC1CC(NC(C)=O)C2 (stereo not drawn)

>  <readoutLabel>
GTP binding, percent of control

>  <measuredResult>
152

$$$$
>  <molecule>
OC(CN1CCN(Cc2ccc3c(c2)OCO3)CC1)c1c[nH]c2ccccc12 (stereo not drawn)

>  <readoutLabel>
GTP binding, percent of control

>  <measuredResult>
78.7

$$$$

Moving on to the next molecule.
**Query** With GTPase HRas (Homo sapiens) (UniProt P01112) as the test system, provide measured GTP binding, percent of control for this molecule: Cc1cc(C)cc(Nc2cc(C(=O)O)c3ccccc3n2)c1
**Result** 80.4

----------
# assayRemarks: reduced mouse 2C T cell binding to pMHC/ICAM-1 vesicles – MLPCN validation set, flow cytometry, LFA-1/ICAM-1 modulator project, pilot screen (AID 2523)
# runParameters: 2C mouse CD8+ T cells, at 7 µM, stronger effect = lower value; measured here: CD8+/vesicle+ event percentage
readoutLabel: double positive events (%)
Respond with the bare value in %.

>  <compound>
Cc1cccc(OCC(=O)Nc2ccc(C(=O)NCC(C)C)cc2)c1

>  <readoutLabel>
double positive events

>  <measuredResult>
62.1

$$$$

**Query** State, in one line, measured double positive events of OC12CCCCC1C(c1ccc3c(c1)OCO3)N(Cc1cccc(F)c1)CC2 (centres undefined)
**Result** 61.7

**Query** State, in one line, measured double positive events of CCC(C(=O)OCCN(CC)CC)c1ccccc1 (centres undefined)
**Result** 57.2

**Query** State, in one line, measured double positive events of c1ccc(Nc2cccc3c(Nc4ccccc4)cccc23)cc1
**Result** 62

**Query** State, in one line, measured double positive events of CC(C)OC(=O)CC12CN3CN(C1)CC(CC(=O)OC(C)C)(C3)C2=O
**Result** 60.5

**Query** State, in one line, measured double positive events of Cc1nc2c(c3c1[nH]c1ccccc13)C(=O)CC(C)(C)C2
**Result** 59.1

**Query** State, in one line, measured double positive events of CN(CCO)CC(O)Cn1cnc2c1c(=O)n(C)c(=O)n2C (centres undefined) (tested in a mixture with another compound)
**Result** 62.5

**Query** State, in one line, measured double positive events of Cc1ccc(N2C(=O)c3ccccc3C2=O)cc1C
**Result** 63.4
